Where do the numbers come from? From paper PMC10786891.

# Measurement target: T1, EsCas13d, nuclease-dead (Eubacterium siraeum, UniProt B0MS50, R295A;H300A;R849A;H854A)
# T1 sequence: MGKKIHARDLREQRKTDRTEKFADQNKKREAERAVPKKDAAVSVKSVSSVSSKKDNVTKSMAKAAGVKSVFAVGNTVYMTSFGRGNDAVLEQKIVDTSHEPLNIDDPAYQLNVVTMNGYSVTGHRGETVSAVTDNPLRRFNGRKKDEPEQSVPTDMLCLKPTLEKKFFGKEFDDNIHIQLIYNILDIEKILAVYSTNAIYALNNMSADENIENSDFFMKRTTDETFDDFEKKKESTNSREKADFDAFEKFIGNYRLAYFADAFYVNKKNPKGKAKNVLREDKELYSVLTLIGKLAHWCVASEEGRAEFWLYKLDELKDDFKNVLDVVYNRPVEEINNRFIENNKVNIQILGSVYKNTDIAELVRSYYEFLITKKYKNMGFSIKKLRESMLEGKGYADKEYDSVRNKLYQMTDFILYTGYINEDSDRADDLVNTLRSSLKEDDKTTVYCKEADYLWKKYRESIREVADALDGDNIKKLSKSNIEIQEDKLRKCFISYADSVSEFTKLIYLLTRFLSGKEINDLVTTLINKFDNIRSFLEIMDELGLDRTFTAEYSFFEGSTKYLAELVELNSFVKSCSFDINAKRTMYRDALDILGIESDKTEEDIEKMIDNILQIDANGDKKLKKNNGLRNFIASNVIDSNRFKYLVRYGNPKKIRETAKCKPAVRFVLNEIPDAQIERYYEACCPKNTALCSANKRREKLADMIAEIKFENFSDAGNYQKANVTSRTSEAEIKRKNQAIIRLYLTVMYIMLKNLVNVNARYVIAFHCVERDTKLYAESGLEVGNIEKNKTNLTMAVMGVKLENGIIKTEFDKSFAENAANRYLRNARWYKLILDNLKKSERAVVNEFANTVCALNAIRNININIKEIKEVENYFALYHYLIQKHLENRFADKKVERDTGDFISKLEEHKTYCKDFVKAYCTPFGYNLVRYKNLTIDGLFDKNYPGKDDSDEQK
# Test description: crRNA (strand 1, pre-loaded); Mg2+; 40 mM Tris-HCl pH 7.5, 150 mM NaCl, 6 mM MgCl2, 1 mM DTT, 0.1% Tween-20, 0.2 mg/ml BSA; 25 C; 10 min per concentration, then washed
# Measurement setup: tags: His6-TwinStrep-SUMO cleaved; N-terminal SNAP kept (SNAP-Surface 488); label: 3' end held by stalled T7 RNA polymerase
Kd vs 50 nM: less than gives 1.0; not less than gives 0.0.

Consider the following illustrative entries.
{"Binder": "target 1 U8A,A16G (mixed) RNA 1: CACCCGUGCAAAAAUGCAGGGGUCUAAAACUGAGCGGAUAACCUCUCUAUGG RNA 2: GGGAAUGGAUCCACAUCUACGAAUUCGUACCAUAGGGAGGUUAACCGCUCACCGAGAUCGGAAGAGCACACGU", "Label": 0.0}
{"Binder": "target 1 insC 3' of 18,insC 3' of 8 (mixed) RNA 1: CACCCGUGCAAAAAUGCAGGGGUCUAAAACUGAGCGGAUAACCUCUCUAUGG RNA 2: GGGAAUGGAUCCACAUCUACGAAUUCGUACCAUACGAGAGGUUAUCCCGCUCACCGAGAUCGGAAGAGCACACGU", "Label": 1.0}
{"Binder": "target 1 MT 5'PFS UUG 3'PFS ACC (mixed) RNA 1: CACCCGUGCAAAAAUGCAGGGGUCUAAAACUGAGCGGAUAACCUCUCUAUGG RNA 2: GGGAAUGGAUCCACAUCUACGAAUUCUUGCCAUAGAGAGGUUAUCCGCUCAACCAGAUCGGAAGAGCACACGU", "Label": 0.0}

Quick check: does target 1 insC 3' of 10,insG 3' of 8 (mixed) RNA 1: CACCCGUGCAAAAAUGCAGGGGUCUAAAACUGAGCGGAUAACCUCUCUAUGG RNA 2: GGGAAUGGAUCCACAUCUACGAAUUCGUACCAUAGAGAGGUUCAUGCCGCUCACCGAGAUCGGAAGAGCACACGU have Kd under 50 nM? 1.0

Quick check: does target 1 C2U,C22U (mixed) RNA 1: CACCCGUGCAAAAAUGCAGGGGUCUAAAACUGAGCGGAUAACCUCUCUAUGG RNA 2: GGGAAUGGAUCCACAUCUACGAAUUCGUAUCAUAGAGAGGUUAUCCGCUUACCGAGAUCGGAAGAGCACACGU have Kd under 50 nM? 1.0

Quick check: does target 3 insG 3' of 8,insC 3' of 7 (mixed) RNA 1: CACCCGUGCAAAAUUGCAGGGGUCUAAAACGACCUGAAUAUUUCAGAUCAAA RNA 2: GGGAAUGGAUCCACAUCUACGAAUUCGUUUUUGAUCUGAAAUAUGUCCAGGUCUGCAGAUCGGAAGAGCACACGU have Kd under 50 nM? 0.0

Quick check: does target 2 MT 5'PFS UAA 3'PFS UAC (mixed) RNA 1: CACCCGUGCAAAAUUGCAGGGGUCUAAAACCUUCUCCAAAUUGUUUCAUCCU RNA 2: GGGAAUGGAUCCACAUCUACGAAUUCUAAAGGAUGAAACAAUUUGGAGAAGUACAGAUCGGAAGAGCACACGU have Kd under 50 nM? 1.0
